tested on: human LILRB2 (human) (UniProt Q8N423)
protocol details: BLI Octet sandwich binning; competitor (antibody #1 on sensor) J-03
quantity: response of antibody #2

- J-04 (antibody, human IgG4 S228P, kappa, V domains shown) VH: QVQLQQSGAELVRPGASVTLSCKASGYTFADYEIHWVKQTPVHGLEWIGAIDPETGGTAYNQKFKGKAILTADKSSSTAYMELRSLTSEDSAVYYCTRYYDYDDAMDYWGQGTSVTVSS VL: QIVLTQSPAIMSASPGEKVTMTCSASSSVSFMHWYQQKSGTSPKRWIYGTSKLASGVPARFSGSGSGTSYSLTISSMEAEDAATYYCQQWNGNPFTFGSGTKLETKR: -0.07
- J-11 (antibody, human IgG4 S228P, kappa, V domains shown) VH: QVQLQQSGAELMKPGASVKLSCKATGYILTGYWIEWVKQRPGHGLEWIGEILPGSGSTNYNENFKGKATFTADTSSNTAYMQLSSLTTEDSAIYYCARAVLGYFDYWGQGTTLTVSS VL: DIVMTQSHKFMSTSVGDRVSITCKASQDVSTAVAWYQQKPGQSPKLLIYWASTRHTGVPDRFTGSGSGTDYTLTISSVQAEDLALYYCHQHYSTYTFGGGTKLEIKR: 0.01
- J-19 (antibody, human IgG4 S228P, kappa, V domains shown) VH: QVTLKESGPGILQPSHTLSLTCSFSGFSLNTYAMGVSWIRQPSGKGLEWLASIWWNGNKYNNPSLKSRLTVSKDTSNNQAFLKVTSVDTADTATYYCAHSRIIRFTDYVMDAWGQGASVTVSS VL: DIQMTQSPASLSTFLGEPVTIECRASEDIYNDLAWYQQKPGKSPQLLIYNANSLHTGVPSRFSGSGSGTQYSLKINSLQSEDVASYFCQQYYDYPLTFGSGTKLEIKR: 0.15
- J-17 (antibody, human IgG4 S228P, kappa, V domains shown) VH: QIQLVQSGPELKKPGETVKISCKASGYTFTTYGLSWVKQTPGKGLKWMGWINTYSGVPTYTDDFKGRFAFSLETSASTAYLQINNLKNEDTATYFCARPYDFDQVGFAYWGQGTLVTVSA VL: SIVMTQTPKFLLVSAGDRVSITCKASQTVSSDVAWYQQKAGQSPKLLIYYASNRYTGVPDRFTGSGYGTDFTFTISTVQAEDLAVYFCQQDYSSPFTFGGGSKLEIKR: 0.05

Value source: patent US20200339690A1
